# Test system: HCT-15 colon
# Method description: NCI-60 one-dose screen, 48 h
# Cond: 10 µM unless noted
About 83,000 compounds went through this panel and 20% of them were active in at least one assay; those are over-represented in the sample as a whole. Calls of active or inactive are those of the source. The calls were made as follows: active = growth percent below 10; inactive = the rest.
Pick from active, inactive when you respond.

Use these answered entries as a reference point.
Molecule: NS(=O)(=O)c1ccc(Nc2nc(Nc3ccccc3)nc(-n3nc(-c4ccccc4)cc3-c3ccccc3)n2)cc1
Class assignment: inactive

Molecule: O=C1[C@H]2Cc3c([nH]c4ccccc34)[C@@H](c3ccc(Br)cc3)N2C(=O)CN1C1CCN(Cc2ccccc2)CC1
Class assignment: inactive

Molecule: O=C(N/N=C/c1ccco1)c1[nH]c2ccc(Br)cc2c1-c1ccccc1
Class assignment: inactive

Molecule: C#Cc1nc(C2=C(C)C(=N\O)/C(=N/O)C2)cs1
Class assignment: inactive

Molecule: COC(=O)C1CCCN(S(=O)(=O)/N=C2\NC(=O)NC2=C(Cl)Cl)C1 (stereo unspecified)
Class assignment: inactive

input: Hi team, can someone confirm the assay call for CC(=NNc1ncnc2ccccc12)c1ccc(S(C)(=O)=O)cc1 ?
output: inactive

input: Check the results log: what was the call for Cc1sc2nc(NCc3ccccc3Cl)[nH]c(=O)c2c1C ?
output: inactive

input: Called result for CS(=O)(=O)c1ccc(-c2nc3ccccn3c2/C=N/Nc2nc(-c3ccc(Cl)cc3)cs2)cc1
output: inactive

input: Entry CN(C)S(=O)(=O)c1oc(-c2ccccc2)nc1C#N : call = ?
output: active

input: Which outcome did this test record for the molecule CCOC(=O)c1c(NC(=O)c2cccc(C(F)(F)F)c2)sc2cc(O)ccc12 ?
output: inactive

input: What outcome does the record of this test show for CN1C(=S)N(C)C2C1NN=C1SC(c3ccccc3)=CC(=O)N12 (stereo unspecified) ?
output: inactive

====

# Tested on: M14 melanoma
# Method description: NCI-60 one-dose screen, 48 h (100 = growth as untreated, 0 = no growth, -100 = all killed)
# Cond: 10 µM unless noted
The panel holds about 83,000 compounds, 20% with a hit somewhere; the sample as a whole holds those more often.
Quantity kind: growth (%)
State just the number; it will be interpreted in %.

Molecule: C#C[C@]1(O)CC[C@H]2[C@@H]3CC=C4c5sc(-c6ccc(F)cn6)nc5CC[C@]4(C)[C@H]3CC[C@@]21C
Assayed target: M14 melanoma
growth [%]: 36.7
//
Molecule: COc1cccc(-c2nn(-c3ccccc3)cc2-c2ccnc(N3CCN(C(=O)c4ccccc4)CC3)c2)c1
Assayed target: M14 melanoma
growth [%]: 81.2

input: What reported growth corresponds to CC(O)C(NC(=O)C1CCCN1C(=O)CNC(=O)C1CC(=O)NCC(=O)NC(Cc2c[nH]c3ccccc23)C(=O)NC(Cc2ccc(O)cc2)C(=O)NCC(=O)NC(CO)C(=O)NC(CCC(N)=O)C(=O)NC(Cc2c[nH]c3ccccc23)C(=O)N1)C(=O)NCC(=O)NC(CCC(N)=O)C(=O)NC(CCCNC(=N)N)C(=O)NC(CC(=O)O)C(=O)O (centres undefined) on M14 melanoma?
output: 91.1

input: Report growth for O=C(NNc1nc2cc(F)ccc2n2c(CN3CC4(COC4)C3)ccc12)c1cnccn1 tested on M14 melanoma.
output: -26.4

input: Lab note: need growth for COc1cc(/C=C/C(=O)c2ccc(C(F)(F)F)cc2)ccc1Oc1nc(NCCO)nc(N2CCOCC2)n1 on M14 melanoma, anyone have it?
output: 97.6

input: # value lookup — system M14 melanoma, readout growth, item N#Cc1nc(-c2ccccc2)oc1N1CC[C@@H](CO)C1
output: 103

input: Which measured growth belongs to CN(C)CCCNc1c2ccc(Cl)cc2nc2c1oc1ccc(Cl)cc12 , tested on M14 melanoma?
output: -75.6

input: // lookup growth | system=M14 melanoma | key= O=C(Nc1nc2ccc(O)cc2s1)c1cccc(C(F)(F)F)c1
output: 50.1

input: Find the measured growth: item CN(C)CCCOc1c2ccc(Cl)cc2nc2c1oc1ccccc12 , target or system M14 melanoma.
output: -84.2

====

Overview of recorded growth for various compounds
# System: SNB-75 CNS
# Method description: NCI-60 one-dose screen, 48 h (100 = growth as untreated, 0 = no growth, -100 = all killed)
# Cond: 10 µM unless noted
Compounds without any hit were thinned out: in the full panel of roughly 83,000, 20% have a hit. Activity calls are given as the source filed them. How the source made its calls: active means growth percent below 10; inactive means the rest.

Check out these entries, answers already filled in.
Compound: OC1CCN(CCCOc2c3ccccc3nc3c2oc2ccc(Cl)cc23)CC1
Quantity kind: growth
Data value: 21% (inactive)

Compound: Clc1ccc2c(OCCCN3CCOCC3)c3oc4ccccc4c3nc2c1
Quantity kind: growth
Data value: 43.5% (inactive)

Compound: COc1ccc(/C=N/NC(=O)c2[nH]c3ccc(Br)cc3c2-c2ccccc2)s1
Quantity kind: growth
Data value: 26.4% (inactive)

Compound: COc1ccccc1/C=C/C=N/NC1=NC2C(S1)N(C)C(=O)N2C (configuration not stated)
Quantity kind: growth
Data value: 18.5% (inactive)

Compound: CCN1CCN(/C(=N\c2sc(-c3ccccc3)nc2-c2ccccc2)c2ccccc2)CC1
Quantity kind: growth
Data value: 89.1% (inactive)

Compound: C/C(=N/NC(N)=S)c1ccc(Nc2nc(SCC(C)C)nc(-c3ccc(F)cc3)c2C#N)cc1
Quantity kind: growth
Data value: 80.6% (inactive)

Compound: COc1cc(/C=C/C(=O)c2cc(OC)c(OC)c(OC)c2)ccc1OCc1ccccc1
Quantity kind: growth
Data value: 13% (inactive)

Compound: CS(=O)(=O)c1ccc(-c2nc3ccccn3c2/C=N/Nc2nc(-c3ccc(Cl)cc3)cs2)cc1
Quantity kind: growth
Data value: 120% (inactive)

Compound: C#Cc1nc(C2=C(C)C(O)CC2)cs1 (configuration not stated)
Quantity kind: growth
Data value: 96.1% (inactive)

Compound: COc1ccc(-c2nc3ccc(-c4nnc(SCC(=O)Nc5ccc(C(=O)/C=C/c6ccccc6)cc5)o4)cc3[nH]2)cc1OC
Quantity kind: growth
Data value: 90.3% (inactive)

input: Which growth is listed for CCCC(=O)NC(c1ccc(N(CC)CC)cc1)c1cc(C)c2cccnc2c1O (configuration not stated) ?
output: 60.4% (inactive)

input: Suppose we examine the compound [Cl][Ru].c1ccc(-c2cc(-c3ccccn3)nc(-c3ccccn3)c2)cc1.c1ccc(-c2ccnc3c2ccc2c(-c4ccccc4)ccnc23)cc1 ; what growth value has been reported?
output: -20% (active)

input: Would you kindly share the measured growth for NC(=O)c1cc(-c2ccc3ncnc(N4CCc5cc(F)c(Cl)cc54)c3c2)cnc1N ?
output: -25% (active)

input: Return reported growth; argument: OC1CCc2c(-c3ccc4ncnc(N5CCc6cc(F)c(Cl)cc65)c4c3)cncc21 (configuration not stated)
output: 31.7% (inactive)

input: For O=C(Nc1nc2ccc(O)cc2s1)c1cccc(C(F)(F)F)c1 , what is its reported growth?
output: 118% (inactive)

input: Requested field: growth. Item: COc1ccc(-c2csc(N/N=C/c3c(-c4ccc(S(C)(=O)=O)cc4)nc4ccccn34)n2)cc1
output: 110% (inactive)

input: State the recorded growth for this entry: COc1ccc(C(=O)/C=C/c2ccc(OCc3ccc(C)cc3)c(OC)c2)cc1OC
output: 72% (inactive)

input: Entry Nc1cc(-c2c[nH]c3ccccc23)nc2cc(-c3c[nH]c4ccccc34)nn12 : reported growth = ?
output: 82.5% (inactive)

====

# Test system: OVCAR-5 ovarian
# Method description: NCI-60 one-dose screen, 48 h
# Cond: 10 µM unless noted
Compounds without any hit were thinned out: in the full panel of roughly 83,000, 20% have a hit. Activity calls are given as the source filed them. How the source made its calls: active means growth percent below 10; inactive means the rest.
The categories you may choose from are YES (active), NO (inactive)

input: What did the test return for O=c1[nH]c2ccccc2cc1CSc1ccccc1Nc1nccc(-c2ccc(C(F)(F)F)cc2)n1 ?
output: NO

input: For O=c1[nH]c2ccc(Cl)cc2cc1CSc1ccccc1Nc1nccc(-c2ccc(Cl)cc2)n1 , what call appears in the results of this test?
output: NO

input: Check the results log: what was the call for COC(=O)c1ccc(NC(=S)N2CCc3ccc([N+](=O)[O-])cc3C2)cc1O ?
output: NO

input: Please state the recorded outcome for this compound: Cn1cc(-c2cc(N)n3nc(-c4cn(C)c5ccc(Cl)cc45)cc3n2)c2cc(Cl)ccc21
output: NO

====

Listed next: entries and their corresponding growth.
# Test system: SNB-75 CNS
# Method description: NCI-60 one-dose screen, 48 h (100 = growth as untreated, 0 = no growth, -100 = all killed)
# Cond: 10 µM unless noted
About 83,000 compounds went through this panel and 20% of them were active in at least one assay; those are over-represented in the sample as a whole.
Return type: number; implicit unit %.

Below: 8 compounds and their reported growth.
Compound: Fc1ccc(-c2nc(C(Cl)Cl)nc3cc(-c4ccccc4)nn23)cc1
Assayed target: SNB-75 CNS
Unit name: %
growth: -14.7
//
Compound: COc1cc(/C=C/C(=O)c2ccc(Cl)cc2)ccc1Oc1nc(NCCO)nc(N2CCOCC2)n1
Assayed target: SNB-75 CNS
Unit name: %
growth: 97.8
//
Compound: O=C(N/N=C/c1cccs1)c1[nH]c2ccc(Br)cc2c1-c1ccccc1
Assayed target: SNB-75 CNS
Unit name: %
growth: 31.4
//
Compound: O=C(N/N=C/c1ccc([N+](=O)[O-])s1)c1[nH]c2ccc(Br)cc2c1-c1ccccc1
Assayed target: SNB-75 CNS
Unit name: %
growth: 26.2
//
Compound: O=C(CN1CCOCC1)NNc1ncnc2ccccc12
Assayed target: SNB-75 CNS
Unit name: %
growth: 72.7
//
Compound: CCOc1ccc([C@H]2C(C(=O)c3ccc(Cl)cc3)C3(N[C@@H]2c2ccccc2)C(=O)Nc2ccc(Br)cc23)cc1 (some centres undefined)
Assayed target: SNB-75 CNS
Unit name: %
growth: 26.9
//
Compound: COc1cc(/C=C/C(=O)c2cc(OC)c(OC)c(OC)c2)ccc1OCc1ccc(F)cc1
Assayed target: SNB-75 CNS
Unit name: %
growth: 8.67
//
Compound: O=C1Nc2cc(Cl)ccc2/C1=C\c1ccc(OCc2ccc(Br)cc2F)cc1
Assayed target: SNB-75 CNS
Unit name: %
growth: -72.8

Alright, here's another compound for you.
input: # input compound: CN1CCc2c(sc3ncnc(N/N=C/c4ccc(Cl)c(Cl)c4)c23)C1 ; wanted: its growth
output: 79.5
